Origin of measurements: ChEMBL document CHEMBL3988442

# experimental-system: AMP-activated protein kinase, AMPK (Homo sapiens) (UniProt P54646+O43741+P54619+Q9UGJ0+Q9Y478+Q13131+Q9UGI9)
# protocol-description: AMP-dependent Kinase enzyme assay. An in vitro enzyme assay that detects ADP turnover that is directly proportional to AMPK activity. This uses naive AMPK that is activated during the assay with MK-8722
# Type: functional
# Design: scale not given: direction of the effect not stated beside the values
# protocol-conditions: 30 µM
measured-attribute: Percent Effect (%)
The figure you give is taken to be in %; do not add the unit.

Request: Field request: Percent Effect | item: COCC(=O)N1Cc2cnc(Cc3ccc(OC)cc3)nc2C1
Result: -2.68

Request: One more compound: O=C(Cc1ccc2c(c1)OCCO2)NCCc1nnc2n1CCC2
Result: 22.3

Request: One more compound: Cc1cccc(C)c1NC(=O)CCNC(=O)c1ccoc1
Result: 5.22

Request: One more compound: Cn1cnc2c1C(COCc1ccccc1)N(Cc1ccncc1)CC2 (stereo not drawn)
Result: -0.486

Request: One more compound: CCN(C)S(=O)(=O)N(CC)Cc1ccc2c(c1)OCO2
Result: 0.454

Request: One more compound: O=C(C1=CCCC1)N1CCC[C@]2(C[C@@H](OCc3ccncc3)CO2)C1
Result: 4.23

Request: One more compound: Cc1nnc(NC(=O)NC2CCOc3ccccc32)s1 (stereo not drawn)
Result: -3.94

Request: One more compound: CC(NC(=O)NCC1(c2ccccc2)CCC1)c1nncn1C (stereo not drawn)
Result: -7.01

Request: One more compound: CCN(CC)CCNC(=O)c1ccn(COc2cc(C)cc(C)c2)n1
Result: 0.388

Request: One more compound: Cc1ccc(CN2CC[C@H]3C[C@@H](c4nc(C5CC5)cs4)O[C@@H]3C2)o1
Result: 0.23

Request: One more compound: O=C(NCCC1CCCO1)c1ccccc1N1CCOCC1 (stereo not drawn)
Result: -1.11

Request: One more compound: CN(C)C(=O)N1CCN(C(=O)C(c2ccccc2F)N(C)C)CC1 (stereo not drawn)
Result: -8.74

Request: One more compound: CC(Cc1ccco1)NC(=O)Nc1ccc(S(C)(=O)=O)nc1 (stereo not drawn)
Result: -6.45

Request: One more compound: CCc1nc2n(n1)CC(Nc1cc(C)nc3ncnn13)CC2 (stereo not drawn)
Result: -10.8

Request: One more compound: Cc1nccn1C1CCCN(C(=O)c2ccc3c(c2)NC(=O)CO3)C1 (stereo not drawn)
Result: -9.28

Request: One more compound: Cc1nc(N2CCOCC2)nc2c1CCN(C(=O)NC1CCCC1)CC2
Result: -1.67

Request: One more compound: CNc1cc(C2CCCN2Cc2ccccc2OCC(=O)O)ccn1 (stereo not drawn)
Result: 11.6

Request: One more compound: CCc1nccn1C1CCCN(C(=O)Cc2cn3ccccc3n2)C1 (stereo not drawn)
Result: -1.52

Request: One more compound: O=C(NCC(O)c1cccs1)c1cccc(Cl)c1 (stereo not drawn)
Result: 3.83

Request: One more compound: COc1cc(C(=O)N2CCCC(CNS(C)(=O)=O)C2)cc(OC)c1C (stereo not drawn)
Result: 77.8

Request: One more compound: c1cc(CNCC2OCCc3cn(CC4CCOCC4)nc32)ccn1 (stereo not drawn)
Result: 1.52

Request: One more compound: Cc1cc(CN2CCCC2c2c(C)nn(C)c2Cl)no1 (stereo not drawn)
Result: -2.49

Request: One more compound: CC(NC(=O)NCCCc1n[nH]c(N)c1C#N)c1cccs1 (stereo not drawn)
Result: 38.5
